- tested-on: CDK2_CycD1 (Homo sapiens)
- Construct: purchased Reaction Biology
- assay-remarks: Radiometric protein kinase assay (33PanQinase), CDK2_CycD1
- Type: biochemical
- measurement-context: highest assay concentration 1.00E-05 M; read-out: IC50
readout-kind: IC50

(Q) Name the recorded IC50 of the compound listed here: Cn1cc(-c2ccc(-c3cncc(Cl)c3N3CCC4(CCNC4=O)CC3)cc2)cn1
(A) > 10 µM

----------
IC50, UniProt Q9NYV4: measured values
Sequence (Q9NYV4 whole entry): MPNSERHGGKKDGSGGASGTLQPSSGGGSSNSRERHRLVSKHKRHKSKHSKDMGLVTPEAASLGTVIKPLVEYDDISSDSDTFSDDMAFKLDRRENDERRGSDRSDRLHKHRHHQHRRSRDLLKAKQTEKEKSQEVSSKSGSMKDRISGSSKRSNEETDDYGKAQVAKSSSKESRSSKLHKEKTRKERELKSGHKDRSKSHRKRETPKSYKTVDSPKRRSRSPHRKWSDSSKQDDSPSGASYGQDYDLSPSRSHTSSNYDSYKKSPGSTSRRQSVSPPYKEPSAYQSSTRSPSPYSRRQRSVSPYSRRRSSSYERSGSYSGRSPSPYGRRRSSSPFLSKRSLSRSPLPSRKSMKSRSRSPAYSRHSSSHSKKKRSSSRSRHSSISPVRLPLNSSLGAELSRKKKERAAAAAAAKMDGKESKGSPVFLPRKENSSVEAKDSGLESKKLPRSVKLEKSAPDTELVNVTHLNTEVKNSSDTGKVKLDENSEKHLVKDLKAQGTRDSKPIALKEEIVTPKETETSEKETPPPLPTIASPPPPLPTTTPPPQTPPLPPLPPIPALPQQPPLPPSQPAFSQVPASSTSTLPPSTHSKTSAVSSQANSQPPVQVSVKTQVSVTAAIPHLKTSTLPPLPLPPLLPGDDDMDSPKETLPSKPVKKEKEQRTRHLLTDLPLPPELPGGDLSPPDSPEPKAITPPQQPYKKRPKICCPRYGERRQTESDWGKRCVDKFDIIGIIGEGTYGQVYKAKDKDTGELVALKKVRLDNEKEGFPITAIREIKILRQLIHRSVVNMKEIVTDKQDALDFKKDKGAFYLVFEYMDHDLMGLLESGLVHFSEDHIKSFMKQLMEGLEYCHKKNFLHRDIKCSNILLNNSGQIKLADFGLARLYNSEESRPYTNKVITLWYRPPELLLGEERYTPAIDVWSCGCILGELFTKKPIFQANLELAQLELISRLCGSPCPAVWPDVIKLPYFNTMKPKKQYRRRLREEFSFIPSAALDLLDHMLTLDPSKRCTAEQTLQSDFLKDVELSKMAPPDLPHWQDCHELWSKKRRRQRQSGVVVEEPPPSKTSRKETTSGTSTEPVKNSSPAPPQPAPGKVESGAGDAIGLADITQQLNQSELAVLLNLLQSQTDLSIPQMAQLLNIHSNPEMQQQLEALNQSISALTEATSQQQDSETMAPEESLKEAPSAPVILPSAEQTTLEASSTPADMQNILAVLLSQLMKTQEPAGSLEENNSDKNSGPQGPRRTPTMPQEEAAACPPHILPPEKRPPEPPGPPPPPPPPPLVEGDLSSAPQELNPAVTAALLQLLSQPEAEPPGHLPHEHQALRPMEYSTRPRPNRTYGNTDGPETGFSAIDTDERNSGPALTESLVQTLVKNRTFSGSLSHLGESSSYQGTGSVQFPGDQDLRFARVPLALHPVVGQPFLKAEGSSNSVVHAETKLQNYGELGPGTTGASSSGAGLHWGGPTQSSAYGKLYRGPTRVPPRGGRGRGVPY
Sequence (O75909 whole entry partner): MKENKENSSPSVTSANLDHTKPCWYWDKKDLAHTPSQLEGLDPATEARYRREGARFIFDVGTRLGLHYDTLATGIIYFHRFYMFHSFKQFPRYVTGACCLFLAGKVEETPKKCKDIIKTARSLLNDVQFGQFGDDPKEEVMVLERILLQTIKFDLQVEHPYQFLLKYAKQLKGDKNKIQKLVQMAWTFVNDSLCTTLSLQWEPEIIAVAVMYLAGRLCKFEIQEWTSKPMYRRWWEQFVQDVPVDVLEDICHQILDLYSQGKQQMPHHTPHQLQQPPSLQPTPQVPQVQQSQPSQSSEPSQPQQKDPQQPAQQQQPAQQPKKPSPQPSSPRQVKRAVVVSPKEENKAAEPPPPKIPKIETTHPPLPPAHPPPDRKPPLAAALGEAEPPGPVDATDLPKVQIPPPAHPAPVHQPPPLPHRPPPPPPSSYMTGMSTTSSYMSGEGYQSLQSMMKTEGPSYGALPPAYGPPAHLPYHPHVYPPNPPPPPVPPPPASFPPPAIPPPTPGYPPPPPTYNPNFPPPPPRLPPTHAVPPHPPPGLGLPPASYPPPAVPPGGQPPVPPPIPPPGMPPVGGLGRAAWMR
Write the answer as a number in µM, unit excluded.

compound: Cc1n[nH]c2ncc(C(=O)N3CCC[C@H]3c3ccc(Cl)cc3)cc12
tested-on: UniProt Q9NYV4
uom: µM
IC50: 9.75

(Q) Name the recorded IC50 of the compound listed here: Cc1c(Br)c(Br)c2c3c1nc(N1CCNCC1)n3CCC2.Cl [SEL120-34A, reference compound]
(A) 0.702

----------
- tested-on: CDK2_CycA2 (Homo sapiens, UniProt P24941)
- Construct: purchased Reaction Biology
- assay-remarks: Radiometric protein kinase assay (33PanQinase), CDK2_CycA2
- Type: biochemical
- measurement-context: highest assay concentration 1.00E-05 M; read-out: IC50
Parameter: IC50. Scope: all listed entries.

Solved entries (count: 2):
compound: Cn1cc(-c2ccc(-c3cncc(Cl)c3N3CCC4(CCNC4=O)CC3)cc2)cn1 [CCT251545]
tested-on: CDK2_CycA2 (Homo sapiens, UniProt P24941)
IC50: > 10 µM
--
compound: Cc1c(Br)c(Br)c2c3c1nc(N1CCNCC1)n3CCC2.Cl [SEL120-34A, reference compound]
tested-on: CDK2_CycA2 (Homo sapiens, UniProt P24941)
IC50: 2.22 µM

(Q) Give the observed IC50 of CN1CCN(C(=O)c2ccc3cc(CCNc4ncnc5ccc(C#N)cc45)ccc3c2)CC1 [Senexin B, reference compound] for CDK2_CycA2 (Homo sapiens, UniProt P24941).
(A) > 10 µM

(Q) Give the observed IC50 of Cn1ncc2cc(-c3cnc(N)c(Cl)c3N3CCC4(CCNC4=O)CC3)ccc21 [CCT251921] for CDK2_CycA2 (Homo sapiens, UniProt P24941).
(A) > 10 µM

----------
- tested-on: CDK6_CycD2 (Homo sapiens)
- Construct: purchased Reaction Biology
- Sequence (Q00534 whole entry): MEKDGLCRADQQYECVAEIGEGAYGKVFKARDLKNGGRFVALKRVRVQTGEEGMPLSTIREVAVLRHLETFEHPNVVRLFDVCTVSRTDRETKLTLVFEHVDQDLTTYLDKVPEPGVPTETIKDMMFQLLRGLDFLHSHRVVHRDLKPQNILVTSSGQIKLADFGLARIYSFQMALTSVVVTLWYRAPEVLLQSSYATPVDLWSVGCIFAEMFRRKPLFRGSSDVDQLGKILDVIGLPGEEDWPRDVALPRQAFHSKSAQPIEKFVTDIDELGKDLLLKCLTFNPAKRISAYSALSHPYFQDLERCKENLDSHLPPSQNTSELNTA
- Sequence (P30279 whole entry partner): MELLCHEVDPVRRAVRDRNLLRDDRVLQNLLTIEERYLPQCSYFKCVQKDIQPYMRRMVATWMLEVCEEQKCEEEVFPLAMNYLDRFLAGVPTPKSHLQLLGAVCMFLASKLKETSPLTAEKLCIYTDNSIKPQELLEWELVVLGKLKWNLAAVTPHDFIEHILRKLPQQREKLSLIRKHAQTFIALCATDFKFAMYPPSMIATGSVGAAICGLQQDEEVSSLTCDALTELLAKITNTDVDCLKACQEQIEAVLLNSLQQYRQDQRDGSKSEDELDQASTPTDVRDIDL
- assay-remarks: Radiometric protein kinase assay (33PanQinase), CDK6_CycD2
- Assay type: biochemical
- measurement-context: slope of the IC50 fit
readout-kind: Hill Slope

(Q) Give the observed Hill Slope of Cc1c(Br)c(Br)c2c3c1nc(N1CCNCC1)n3CCC2.Cl [SEL120-34A, reference compound] for CDK6_CycD2 (Homo sapiens).
(A) -0.78

----------
Parameter: Hill Slope. Scope: all listed entries.
- tested-on: CDK10_CycQ (Homo sapiens, UniProt Q15131)
- Sequence (Q15131 whole entry): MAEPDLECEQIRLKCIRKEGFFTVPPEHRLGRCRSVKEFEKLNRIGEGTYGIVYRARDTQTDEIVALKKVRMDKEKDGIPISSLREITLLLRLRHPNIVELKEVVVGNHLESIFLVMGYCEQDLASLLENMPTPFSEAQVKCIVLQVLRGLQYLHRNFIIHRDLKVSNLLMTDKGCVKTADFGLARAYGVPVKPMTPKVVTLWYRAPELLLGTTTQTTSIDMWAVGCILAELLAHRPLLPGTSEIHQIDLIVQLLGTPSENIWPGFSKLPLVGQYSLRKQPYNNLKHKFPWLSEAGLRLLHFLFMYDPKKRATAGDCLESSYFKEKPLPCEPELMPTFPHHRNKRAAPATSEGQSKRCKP
- Sequence (Q8N1B3 whole entry partner): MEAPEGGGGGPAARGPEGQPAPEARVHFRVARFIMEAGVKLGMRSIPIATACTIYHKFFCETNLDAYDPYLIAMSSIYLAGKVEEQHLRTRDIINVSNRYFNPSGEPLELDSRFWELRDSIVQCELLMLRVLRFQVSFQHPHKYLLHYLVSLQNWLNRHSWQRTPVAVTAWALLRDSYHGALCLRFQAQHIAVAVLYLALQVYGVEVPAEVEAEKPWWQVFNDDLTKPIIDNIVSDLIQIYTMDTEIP
- assay-remarks: Radiometric protein kinase assay (33PanQinase), CDK10_CycQ
- Type: biochemical
- measurement-context: slope of the IC50 fit

Solved entries (count: 4):
molecule: Cc1c(Br)c(Br)c2c3c1nc(N1CCNCC1)n3CCC2.Cl [SEL120-34A, reference compound]
Hill Slope: -0.83
//
molecule: Cc1n[nH]c2ncc(C(=O)N3CCC[C@H]3c3ccc(Cl)cc3)cc12
Hill Slope: -1.12
//
molecule: Cn1cc(-c2ccc(-c3cncc(Cl)c3N3CCC4(CCNC4=O)CC3)cc2)cn1
Hill Slope: -0.51
//
molecule: CN1CCN(C(=O)c2ccc3cc(CCNc4ncnc5ccc(C#N)cc45)ccc3c2)CC1 [Senexin B, reference compound]
Hill Slope: -0.47

Now turn to the next molecule.
(Q) Name the recorded Hill Slope of the molecule listed here: Cn1ncc2cc(-c3cnc(N)c(Cl)c3N3CCC4(CCNC4=O)CC3)ccc21
(A) -0.72
